tested on: Fibroblast; assay: Multiplex assay against human fibroblast; format: toxicity, cell-based; settings: 48 h, 10 µM, compound concentration 10 uM, replicate 2
# yes (1) = Population Hoechst High Intensity Objects (%) below 10% (exclusive); no (0) = Population Hoechst High Intensity Objects (%) at/above 10%

# COMPOUND, CATEGORY
records = [
    ("C=CC(=O)Nc1cccc(C(=O)Nc2ccc(Nc3cc(-c4[nH]c(SC)nc4C)ccn3)cc2)c1", "no (0)"),
    ("C[C@@]1(C(=O)Nc2ccc(F)nc2)CCCN1c1nc(Nc2cc(C3CC3)n[nH]2)c2cccn2n1 [BMS-754807]", "yes (1)"),
    ("CCOCCn1cc(C(=O)Nc2ccc(-n3nc(-c4cccnc4)cc3C(F)(F)F)cn2)ccc1=O [BI 1935]", "yes (1)"),
    ("C=CC(=O)Nc1ccc2ncnc(Nc3ccc(OCc4cccc(F)c4)c(Cl)c3)c2c1.Cc1ccc(S(=O)(=O)O)cc1", "no (0)"),
    ("COc1cc(-n2cnc3cc(-c4ccc(Cl)cc4)sc3c2=O)ccc1OCCN1CCCC1", "no (0)"),
    ("COc1cccc([C@@H](C)NCCCc2ccccc2Cl)c1.Cl [TECALCET HYDROCHLORIDE]", "no (0)"),
    ("Cc1nc(-c2ccc(-c3ccc(C(=O)N4CCc5cc6c(cc54)C4(CCN(C)CC4)CO6)cc3)c(C)c2)no1 [SB-224289]", "no (0)"),
    ("CN1CCCC(n2nc(Cc3ccc(Cl)cc3)c3ccccc3c2=O)CC1.Cl (stereo not drawn) [AZELASTINE HYDROCHLORIDE]", "no (0)"),
]
